target_under_test: α1β2γ2 GABAA receptors (Homo sapiens (Human), UniProt P14867+P47870)
protocol_text: Patch clamp electrophysiology (QPatch) of recombinant α1β2γ2 GABAA receptors in LTK cells
Format: cell-based
assay_context: 10 μM test article, GABA EC20 = 2 μM, read-out: GABA (α1β2γ2) Qpatch in Ltk, % efficacy at 10 μM
Attribute: Emax at 10 µM

The cases that follow already have their Emax at 10 µM on record.
COC[C@@]1(O)CC[C@@]2(C)[C@@H](CC[C@@H]3[C@@H]2CC[C@]2(C)[C@@H](C(=O)Cn4nnnc4C)CC[C@@H]32)C1 > 500%
Cc1nccn1CC(=O)[C@H]1CC[C@H]2[C@@H]3CC[C@@H]4C[C@](C)(O)CC[C@]4(C)[C@H]3CC[C@]12C 100 to 500%

Now take the following compound into account.
-- ask So what does the record say about Emax at 10 µM for CC(C)Oc1cnn(CC(=O)[C@H]2CC[C@H]3[C@@H]4CC[C@@H]5C[C@](C)(O)CC[C@]5(C)[C@H]4CC[C@]23C)c1 ?
-- reply 100 to 500%
